# measured-on: isolated recombinant JAK2 kinase domain (Homo sapiens, UniProt O60674)
# Construct: isolated recombinant JAK1 and JAK2 kinase domain
# Sequence (O60674 849-1124 limits assumed): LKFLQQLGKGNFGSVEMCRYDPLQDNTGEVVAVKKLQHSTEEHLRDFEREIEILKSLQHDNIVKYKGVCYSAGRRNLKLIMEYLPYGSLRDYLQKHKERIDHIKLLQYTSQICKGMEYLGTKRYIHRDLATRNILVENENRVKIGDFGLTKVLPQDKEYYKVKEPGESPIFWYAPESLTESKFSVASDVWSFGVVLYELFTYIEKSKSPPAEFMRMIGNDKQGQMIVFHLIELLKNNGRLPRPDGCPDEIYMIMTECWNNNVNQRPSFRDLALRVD
# method-notes: JAK enzyme assay, JAK2 kinase domain (Caliper LabChip)
# condition-info: 0.2 nM JAK2, ATP 25 μM, Morrison tight binding model
measurement-label: log10(Ki) (log10 of the value in nM)

[
  {
    "compound": "CSc1cccc(C2(CC#N)CN(c3cccn4nc(Nc5cnn(CC(=O)N6CCN(C)CC6)c5)nc34)C2)c1 [Example 78]",
    "log10(Ki)": -0.05
  },
  {
    "compound": "CN1CCN(C(=O)Cn2cc(Nc3nc4c(N5CC(CC#N)(N6CCC(C#N)CC6)C5)cccn4n3)cn2)CC1 [Example 13]",
    "log10(Ki)": 0.72
  },
  {
    "compound": "CCc1cnn(C2(CC#N)CN(c3cccn4nc(Nc5cccc(C(=O)N6CCN(C)CC6)c5)nc34)C2)c1 [Example 75]",
    "log10(Ki)": 0.30
  },
  {
    "compound": "CN1CCN(C2CCN(C(=O)Cn3cc(Nc4nc5c(N6CC(CC#N)(c7cccc(Cl)c7)C6)cccn5n4)cn3)CC2)CC1 [Example 70]",
    "log10(Ki)": -0.52
  },
  {
    "compound": "CCc1cnn(C2(CC#N)CN(c3cccn4nc(Nc5cnn(CCO)c5)nc34)C2)c1 [Example 133]",
    "log10(Ki)": -0.52
  },
  {
    "compound": "CN1CCN(C(=O)c2cc(Nc3nc4c(N5CC(CC#N)(n6cc(C(F)(F)F)cn6)C5)cccn4n3)ccn2)CC1 [Example 111]",
    "log10(Ki)": -0.40
  },
  {
    "compound": "CN1CCN(C(=O)Cn2cc(Nc3nc4c(N5CC(CC#N)(CCc6ccccc6)C5)cccn4n3)cn2)CC1 [Example 76]",
    "log10(Ki)": -0.05
  }
]

###

# measured-on: isolated recombinant JAK1 kinase domain (Homo sapiens)
# Construct: isolated recombinant JAK1 and JAK2 kinase domain
# Sequence (P23458 875-1153 limits assumed): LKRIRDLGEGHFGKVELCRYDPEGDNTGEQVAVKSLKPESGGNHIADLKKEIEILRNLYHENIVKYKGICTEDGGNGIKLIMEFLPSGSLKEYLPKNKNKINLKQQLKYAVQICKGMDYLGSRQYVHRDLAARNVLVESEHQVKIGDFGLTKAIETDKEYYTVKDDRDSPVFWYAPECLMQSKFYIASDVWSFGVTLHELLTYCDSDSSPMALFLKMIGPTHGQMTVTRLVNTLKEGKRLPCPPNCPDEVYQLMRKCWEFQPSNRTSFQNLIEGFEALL
# method-notes: JAK enzyme assay, JAK1 kinase domain (Caliper LabChip)
# condition-info: 1.5 nM JAK1, ATP 25 μM, Morrison tight binding model
pKi: −log10 of the molar value.
List of pKi values.
measurement-label: pKi

[
  {
    "smiles-repr": "CN1CCN(C(=O)Cn2cc(Nc3nc4c(N5CC(CC#N)(n6cc(CNCC(F)(F)F)cn6)C5)cccn4n3)cn2)CC1",
    "measured-result": 9.30
  },
  {
    "smiles-repr": "CCc1cnn(C2(CC#N)CN(c3cccn4nc(Nc5cnn(CC(=O)N6CCC(NCC(C)(F)F)CC6)c5)nc34)C2)c1",
    "measured-result": 9.15
  },
  {
    "smiles-repr": "CCc1cnn(C2(CC#N)CN(c3cccn4nc(Nc5cnn(CCO)c5)nc34)C2)c1",
    "measured-result": 9.52
  },
  {
    "smiles-repr": "CCc1cccc(C2(CC#N)CN(c3cccn4nc(Nc5cnn(CC(=O)N6CCN(C)CC6)c5)nc34)C2)c1",
    "measured-result": 9.52
  }
]

###

# measured-on: isolated recombinant JAK2 kinase domain (Homo sapiens, UniProt O60674)
# Construct: isolated recombinant JAK1 and JAK2 kinase domain
# method-notes: JAK enzyme assay, JAK2 kinase domain (Caliper LabChip)
# condition-info: 0.2 nM JAK2, ATP 25 μM, Morrison tight binding model
pKi: −log10 of the molar value.
Everything with pKi lower than 9 is false; everything else, including exactly 9, is true.

[
  {
    "smiles-repr": "CCc1cnn(C2(CC#N)CN(c3cccn4nc(Nc5ccc(C(=O)N6CCN(C7CCOCC7)CC6)cc5)nc34)C2)c1",
    "class-label": "false"
  },
  {
    "smiles-repr": "CCc1cnn(C2(CC#N)CN(c3cccn4nc(Nc5cnn(CC(=O)N6CCC(N(C)C7COC7)CC6)c5)nc34)C2)c1",
    "class-label": "true"
  },
  {
    "smiles-repr": "Cn1cc(Nc2nc3c(N4CC(CC#N)(n5cc(Br)cn5)C4)cccn3n2)cn1",
    "class-label": "true"
  },
  {
    "smiles-repr": "CCc1cnn(C2(CC#N)CN(c3cccn4nc(Nc5cnn(CC(=O)N6CCC(N(C)CC(C)(C)C#N)CC6)c5)nc34)C2)c1",
    "class-label": "true"
  },
  {
    "smiles-repr": "CCc1cnn(C2(CC#N)CN(c3cccn4nc(Nc5cnn(C)c5)nc34)C2)c1",
    "class-label": "true"
  },
  {
    "smiles-repr": "CCc1cnn(C2(CC#N)CN(c3cccn4nc(Nc5ccc(C(=O)N6CCN(C7COC7)CC6)cc5)nc34)C2)c1",
    "class-label": "false"
  },
  {
    "smiles-repr": "CN1CCN(C(=O)Cn2cc(Nc3nc4c(N5CC(CC#N)(n6cc(C(F)(F)F)cn6)C5)cccn4n3)cn2)CC1",
    "class-label": "false"
  },
  {
    "smiles-repr": "CCc1cnn(C2(CC#N)CN(c3cccn4nc(Nc5cnn(CCCO)c5)nc34)C2)c1",
    "class-label": "false"
  },
  {
    "smiles-repr": "CCc1cnn(C2(CC#N)CN(c3cccn4nc(Nc5cnn(CC(=O)N6CCC(CN7CCN(CC(=O)N(C)C)CC7)CC6)c5)nc34)C2)c1",
    "class-label": "false"
  },
  {
    "smiles-repr": "CN1CCN(C(=O)Cn2cc(Nc3nc4c(N5CC(CC#N)(n6cc(C7CCCC7)cn6)C5)cccn4n3)cn2)CC1",
    "class-label": "false"
  },
  {
    "smiles-repr": "CN(CC1(C#N)CC1)C1CCN(C(=O)Cn2cc(Nc3nc4c(N5CC(CC#N)(n6cc(C(F)(F)F)cn6)C5)cccn4n3)cn2)CC1",
    "class-label": "true"
  },
  {
    "smiles-repr": "CSc1ccc(C2(CC#N)CN(c3cccn4nc(Nc5cnn(CC(=O)N6CCN(C)CC6)c5)nc34)C2)cc1",
    "class-label": "false"
  },
  {
    "smiles-repr": "N#CCC1(n2cc(C(F)(F)F)cn2)CN(c2cccn3nc(Nc4cccc(C(=O)N5CCC(N6CCOCC6)CC5)c4)nc23)C1",
    "class-label": "false"
  },
  {
    "smiles-repr": "CN1CCN(C(=O)Cn2cc(Nc3nc4c(N5CC(CC#N)(n6cc(C7CCCCC7)cn6)C5)cccn4n3)cn2)CC1",
    "class-label": "false"
  },
  {
    "smiles-repr": "CCc1cnn(C2(CC#N)CN(c3cccn4nc(Nc5cnn(CC(=O)N6CCN(CC)CC6)c5)nc34)C2)c1",
    "class-label": "false"
  },
  {
    "smiles-repr": "Cc1nn(C2(CC#N)CN(c3cccn4nc(Nc5cnn(CC(=O)N6CCN(C)CC6)c5)nc34)C2)cc1-c1ccccc1",
    "class-label": "true"
  },
  {
    "smiles-repr": "Cn1cc(Nc2nc3c(N4CC(CC#N)(n5cc(OC(F)F)cn5)C4)cccn3n2)cn1",
    "class-label": "true"
  }
]

###

# measured-on: isolated recombinant JAK2 kinase domain (Homo sapiens)
# Construct: isolated recombinant JAK1 and JAK2 kinase domain
# method-notes: JAK enzyme assay, JAK2 kinase domain (Caliper LabChip)
# Format: biochemical
# condition-info: 0.2 nM JAK2, ATP 25 μM, Morrison tight binding model
List of log10 of Ki values.
measurement-label: log10 of Ki (log10 of the value in nM)

[
  {
    "smiles-repr": "Cn1cc(Nc2nc3c(N4CC(CC#N)(n5cc(C6CC6)cn5)C4)cccn3n2)cn1",
    "measured-on": "isolated recombinant JAK2 kinase domain (Homo sapiens)",
    "measured-result": -0.30
  },
  {
    "smiles-repr": "CC(C)c1cnn(C2(CC#N)CN(c3cccn4nc(Nc5cnn(C)c5)nc34)C2)c1",
    "measured-on": "isolated recombinant JAK2 kinase domain (Homo sapiens)",
    "measured-result": -0.52
  },
  {
    "smiles-repr": "CCc1cnn(C2(CC#N)CN(c3cccn4nc(Nc5cnn(CC(=O)N6CCN(CCNC(=O)CC78CC9CC(CC(C9)C7)C8)CC6)c5)nc34)C2)c1",
    "measured-on": "isolated recombinant JAK2 kinase domain (Homo sapiens)",
    "measured-result": -0.52
  },
  {
    "smiles-repr": "CCc1cnn(C2(CC#N)CN(c3cccn4nc(Nc5cccc(CC(=O)N6CCN(C)CC6)c5)nc34)C2)c1",
    "measured-on": "isolated recombinant JAK2 kinase domain (Homo sapiens)",
    "measured-result": 0.49
  },
  {
    "smiles-repr": "CCc1cnn(C2(CC#N)CN(c3cccn4nc(Nc5ccc(C(=O)NCc6ccc(C)nc6)cc5)nc34)C2)c1",
    "measured-on": "isolated recombinant JAK2 kinase domain (Homo sapiens)",
    "measured-result": -0.70
  },
  {
    "smiles-repr": "CCc1cnn(C2(CC#N)CN(c3cccn4nc(Nc5cnn(CC(=O)N6CCC(NCC7(C#N)CC7)CC6)c5)nc34)C2)c1",
    "measured-on": "isolated recombinant JAK2 kinase domain (Homo sapiens)",
    "measured-result": 0.66
  },
  {
    "smiles-repr": "CN1CCN(C(=O)Cn2cc(Nc3nc4c(N5CC(CC#N)(n6cc(CCF)cn6)C5)cccn4n3)cn2)CC1",
    "measured-on": "isolated recombinant JAK2 kinase domain (Homo sapiens)",
    "measured-result": -0.70
  }
]
